Data provenance is ChEMBL document CHEMBL1142706.

Please respond with reported IC50 for every item in the list.
Biological target: CYP11B1 (Homo sapiens, UniProt P15538)
Sequence (P15538 whole entry): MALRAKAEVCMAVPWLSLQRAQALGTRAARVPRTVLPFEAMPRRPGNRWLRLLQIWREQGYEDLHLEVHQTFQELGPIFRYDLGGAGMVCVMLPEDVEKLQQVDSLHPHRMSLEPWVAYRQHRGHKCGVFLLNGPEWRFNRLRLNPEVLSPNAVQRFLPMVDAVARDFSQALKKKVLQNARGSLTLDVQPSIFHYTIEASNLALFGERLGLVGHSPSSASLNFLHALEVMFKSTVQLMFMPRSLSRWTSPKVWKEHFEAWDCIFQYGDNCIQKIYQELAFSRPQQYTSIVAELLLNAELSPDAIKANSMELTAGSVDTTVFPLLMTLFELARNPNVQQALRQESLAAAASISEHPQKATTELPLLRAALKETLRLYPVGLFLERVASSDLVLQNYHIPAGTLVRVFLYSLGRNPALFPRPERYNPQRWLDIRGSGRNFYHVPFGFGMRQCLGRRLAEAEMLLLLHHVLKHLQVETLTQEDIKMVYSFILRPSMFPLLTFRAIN
Experiment: In vitro inhibitory concentration against human CYP11B1 expressed in V79 MZh hamster fibroblasts incubated with 100 nM of substrate deoxy-corticosterone in presence of the compound
Conditions: human, V79 MZh hamster fibroblasts expressing human CYP11B1, probe deoxy-corticosterone
Answers are plain numbers, in nM.

Please look at the items below and tell me IC50 for each one, in order.
1. Fc1ccc2c(c1)CC/C2=C\c1cncnc1
2. Fc1ccc2c(c1)CC/C2=C\c1cccc2cnccc12

## Output
1. 3180
2. 58

###

Target: Cytochrome P450 11B2, mitochondrial (Homo sapiens, UniProt P19099)
Sequence (P19099 whole entry): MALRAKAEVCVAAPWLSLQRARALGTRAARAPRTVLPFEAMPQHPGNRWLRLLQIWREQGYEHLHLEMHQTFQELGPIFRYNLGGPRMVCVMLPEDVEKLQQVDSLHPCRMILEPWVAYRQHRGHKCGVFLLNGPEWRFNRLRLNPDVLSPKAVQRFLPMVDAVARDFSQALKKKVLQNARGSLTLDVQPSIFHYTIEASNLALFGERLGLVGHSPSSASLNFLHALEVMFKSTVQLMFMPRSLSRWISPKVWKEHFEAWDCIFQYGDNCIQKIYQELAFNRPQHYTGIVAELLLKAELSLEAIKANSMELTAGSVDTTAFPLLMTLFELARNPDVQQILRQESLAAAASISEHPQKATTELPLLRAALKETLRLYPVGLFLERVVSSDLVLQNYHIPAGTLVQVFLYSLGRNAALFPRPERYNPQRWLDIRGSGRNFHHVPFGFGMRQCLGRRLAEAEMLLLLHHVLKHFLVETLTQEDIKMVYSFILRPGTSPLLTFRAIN
Assay: In vitro inhibitory concentration against human CYP11B2 expressed in V79MZh hamster fibroblasts incubated with 100 nM of substrate deoxy-corticosterone in presence of the compound
Please respond with reported pIC50 for every item in the list.
Answers are plain numbers, as −log10 of the molar value.

Fc1ccc2c(c1)CC/C2=C/c1ccnc2ccccc12	7.85
COc1ccc2c(c1)CC/C2=C/c1cccnc1	7.59
COc1ccc2c(c1)CC/C2=C/c1ccncc1	7.26
Clc1cccc2c1CC/C2=C\c1cccnc1	8.05
Fc1ccc2c(c1)CC/C2=C\c1cccnc1	8.15
Fc1ccc2c(c1)CC/C2=C/c1cccnc1	7.96
Fc1ccc2c(c1)CC/C2=C/c1ccncc1	7.54
Cc1ccc2c(c1)/C(=C/c1ccncc1)CC2	8.40
Fc1ccc2c(c1)CC/C2=C/c1cccc2cnccc12	7.19
Clc1ccc2c(c1)CC/C2=C/c1ccncc1	6.52

Please look at the items below and tell me pIC50 for each one, in order.
1. Fc1ccc2c(c1)CC/C2=C\c1ccncc1
2. C(=C1c2ccccc2-c2ccccc21)c1cccnc1
3. Cc1ccc2c(c1)/C(=C\c1ccncc1)CC2
4. C(=C1/CCCc2ccccc21)/c1ccncc1
5. C(=C1\CCc2ccccc21)/c1cccnc1

## Output
1. 7.82
2. 8.22
3. 8.10
4. 7.82
5. 7.04

Please look at the items below and tell me pIC50 for each one, in order.
1. Fc1ccc2c(c1)CC/C2=C\c1ccnc2ccccc12
2. Clc1cccc2c1CC/C2=C/c1cccnc1
3. COc1ccc2c(c1)/C(=C\c1ccncc1)CC2

## Output
7.70
7.51
7.59

###

Target: CYP17 (Homo sapiens, UniProt P05093)
Sequence (P05093 whole entry): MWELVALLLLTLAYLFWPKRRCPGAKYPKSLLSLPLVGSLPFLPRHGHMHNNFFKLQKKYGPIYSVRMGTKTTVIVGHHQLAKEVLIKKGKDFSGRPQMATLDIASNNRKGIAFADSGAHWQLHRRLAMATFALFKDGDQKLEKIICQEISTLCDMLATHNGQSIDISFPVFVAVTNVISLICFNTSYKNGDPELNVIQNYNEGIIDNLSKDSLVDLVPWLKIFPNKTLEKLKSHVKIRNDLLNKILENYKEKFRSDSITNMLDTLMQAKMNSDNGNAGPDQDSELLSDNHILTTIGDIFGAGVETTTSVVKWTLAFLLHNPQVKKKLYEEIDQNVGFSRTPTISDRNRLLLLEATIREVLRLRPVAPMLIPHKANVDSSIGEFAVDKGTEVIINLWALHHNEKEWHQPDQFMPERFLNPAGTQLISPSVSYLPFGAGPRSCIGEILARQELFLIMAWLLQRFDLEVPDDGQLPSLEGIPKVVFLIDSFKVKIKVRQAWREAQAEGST
Experiment: In vitro inhibition of human CYP17 expressed in Escherichia coli incubated with 2.5 uM of substrate progesterone in presence of 2.5 uM of compound
Details: probe progesterone
OUTCOME MEASURE: inhibition at 2.5 µM (%)
Give bare numbers, in %.

Reference set, count: 3
C(=C1/CCCc2ccccc21)/c1cccnc1	9
Fc1cccc2c1CC/C2=C\c1cccnc1	42
C(=C1\CCCc2ccccc21)/c1cccnc1	24

Please look at the items below and tell me inhibition at 2.5 µM for each one, in order.
1. C(=C1/CCc2cc(OCc3ccccc3)ccc21)/c1cccnc1
2. Cc1cccc2c1CC/C2=C/c1cccnc1
3. Cc1cccc2c1CC/C2=C\c1cccnc1
4. Brc1ccc2c(c1)CC/C2=C\c1cccnc1
5. Fc1ccc2c(c1)CC/C2=C\c1cccnc1

## Output
1: 1; 2: 16; 3: 40; 4: 16; 5: 17

Please look at the items below and tell me inhibition at 2.5 µM for each one, in order.
1. Cc1ccc2c(c1)/C(=C\c1cccnc1)CC2
2. COc1ccc2c(c1)/C(=C/c1cccnc1)CC2
3. Clc1ccc2c(c1)CC/C2=C\c1cccnc1
4. COc1ccc2c(c1)CC/C2=C\c1cccnc1
5. COc1cccc2c1/C(=C/c1cccnc1)CC2
6. CCOc1ccc2c(c1)CC/C2=C/c1cccnc1

## Output
1. 2
2. 5
3. 26
4. 36
5. 5
6. 6
